Reference for the values: patent US12642870B2

- Measurement notes: Physical characterisation of mRNA-containing LNPs (DLS, NTA, zeta potential)
- Format: physicochemical
- Measurement setup: Fluc mRNA LNPs: compound/DOPE/Cholesterol/DMG-PEG2000 41.44/45.85/10/2.7, lipid:RNA 40:1 (w/w)
- Description: A series of ten multi-component LNP compositions of the present disclosure comprising exemplary compounds of Formula (I) was prepared by combining various percentages of an exemplary compound of Formula (I), the phospholipid DOPE, the structural lipid cholesterol (Chol) and 1,2-dimyristoyl-sn-glycerol methoxypolyethylene glycol (DMG-PEG2000; Avanti Polar Lipids, Alabaster, Alabama, USA). […]
Hi there, I'd appreciate the recorded Diameter (DLS; nm) for every entry that follows.
Don't forget the unit after the number, please.

Example entries begin here.
• CC(C)C(CCC(C)C(CCC1CCC(C(=O)NC2CCC(CC3CCC(NC(=O)C4CCC(CCC(SCCN(C)C)C(C)CCC(SCCN(C)C)C(C)C)C(SCCN(C)C)C4)CC3)CC2)CC1SCCN(C)C)SCCN(C)C)SCCN(C)C (stereo not shown) = 91.8 nm
• CC(C)C(CCC(C)C(CCC1CC2C(=O)N(c3ccc(N4C(=O)C5CC(CCC(SCCN(C)C)C(C)CCC(SCCN(C)C)C(C)C)C(SCCN(C)C)CC5C4=O)cc3)C(=O)C2CC1SCCN(C)C)SCCN(C)C)SCCN(C)C (stereo not shown) = 123.5 nm
• CC(C)C(CCC(C)C(CCC1CCC(C(=O)NCCCCCCNC(=O)C2CCC(CCC(SCCN(C)C)C(C)CCC(SCCN(C)C)C(C)C)C(SCCN(C)C)C2)CC1SCCN(C)C)SCCN(C)C)SCCN(C)C (stereo not shown) = 155.1 nm

**Q:** Entry CC(C)C(CCC1CCC(C(=O)NCCCCCCNC(=O)C2CCC(CCC(SCCN(C)C)C(C)C)C(SCCN(C)C)C2)CC1SCCN(C)C)SCCN(C)C (stereo not shown) : reported Diameter (DLS; nm) = ?
**A:** 79.6 nm

---

- Measurement notes: Physical characterisation of DNA-containing LNPs (DLS, NTA, zeta potential)
- Type: physicochemical
- Measurement setup: nano-pB-EF1a-GFP DNA LNPs: compound/DOPE/Cholesterol/DMG-PEG2000 38.0/50.0/10.0/2.0, lipid:DNA 45:1 (w/w)
- Excerpt: […]
Hi there, I'd appreciate the recorded PDI for every entry that follows.
Numbers only.

List the reported PDI of each compound below.
1. CC(C)C(CCC(C)C(CCC1CC2C(=O)N(c3ccc(N4C(=O)C5CC(CCC(SCCN(C)C)C(C)CCC(SCCN(C)C)C(C)C)C(SCCN(C)C)CC5C4=O)cc3)C(=O)C2CC1SCCN(C)C)SCCN(C)C)SCCN(C)C (stereo not shown)
2. CC(C)C(CCC1CCC(C(=O)NCCCCCCNC(=O)C2CCC(CCC(SCCN(C)C)C(C)C)C(SCCN(C)C)C2)CC1SCCN(C)C)SCCN(C)C (stereo not shown)
3. CC(C)C(CCC(C)C(CCC1CCC(C(=O)NCCCCCCNC(=O)C2CCC(CCC(SCCN(C)C)C(C)CCC(SCCN(C)C)C(C)C)C(SCCN(C)C)C2)CC1SCCN(C)C)SCCN(C)C)SCCN(C)C (stereo not shown)
4. CC(C)C(CCC(C)C(CCC1CCC(C(=O)NC2CCC(CC3CCC(NC(=O)C4CCC(CCC(SCCN(C)C)C(C)CCC(SCCN(C)C)C(C)C)C(SCCN(C)C)C4)CC3)CC2)CC1SCCN(C)C)SCCN(C)C)SCCN(C)C (stereo not shown)

**A:**
0.224
0.221
0.17
0.168
